Target: DNA topoisomerase 1 (Homo sapiens) (UniProt P11387)
Sequence (P11387 whole entry): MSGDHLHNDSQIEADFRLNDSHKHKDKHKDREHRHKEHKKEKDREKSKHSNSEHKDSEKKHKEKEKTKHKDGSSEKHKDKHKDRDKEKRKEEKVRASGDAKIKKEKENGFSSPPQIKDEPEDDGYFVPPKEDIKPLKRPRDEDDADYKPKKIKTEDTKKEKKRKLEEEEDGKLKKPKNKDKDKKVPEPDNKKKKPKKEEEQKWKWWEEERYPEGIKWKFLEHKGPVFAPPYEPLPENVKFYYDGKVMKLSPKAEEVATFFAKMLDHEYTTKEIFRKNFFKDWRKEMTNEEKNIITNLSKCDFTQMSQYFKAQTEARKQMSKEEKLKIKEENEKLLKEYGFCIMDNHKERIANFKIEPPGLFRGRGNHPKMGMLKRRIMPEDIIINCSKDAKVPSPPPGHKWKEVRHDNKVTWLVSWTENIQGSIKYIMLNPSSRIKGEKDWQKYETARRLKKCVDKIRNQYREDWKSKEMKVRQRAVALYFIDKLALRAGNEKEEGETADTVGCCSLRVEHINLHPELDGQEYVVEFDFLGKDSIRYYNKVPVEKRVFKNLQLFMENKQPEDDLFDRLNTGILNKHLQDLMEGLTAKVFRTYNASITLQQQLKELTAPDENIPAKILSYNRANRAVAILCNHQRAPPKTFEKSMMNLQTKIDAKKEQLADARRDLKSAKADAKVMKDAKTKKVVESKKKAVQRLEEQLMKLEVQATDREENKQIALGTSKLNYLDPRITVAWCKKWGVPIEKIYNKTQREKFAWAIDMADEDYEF
Test: Inhibition of DNA topoisomerase 1 assessed as relaxation of supercoiled Escherichia coli pBR322 DNA at 100 uM
Calls of active or inactive are those of the source. The rule behind the calls is not given here.
metric_name: inhibition

| compound_smiles | tested_on | value_reported |
| --- | --- | --- |
| COc1ccc(Cn2c3c(c4cc(C)ccc4c2=O)CCOc2ccccc2-3)cc1 | DNA topoisomerase 1 (Homo sapiens) (UniProt P11387) | inactive |
| C=COc1ccccc1-c1c(Br)c2ccccc2c(=O)n1Cc1ccc(OC)cc1 | DNA topoisomerase 1 (Homo sapiens) (UniProt P11387) | inactive |
| COCOc1ccccc1-c1cc2cc(C)ccc2c(=O)[nH]1 | DNA topoisomerase 1 (Homo sapiens) (UniProt P11387) | inactive |
| COc1ccc(Cn2c3c(c4ccccc4c2=O)CCOc2ccccc2-3)cc1 | DNA topoisomerase 1 (Homo sapiens) (UniProt P11387) | 94.5% |
